Reference for the values: paper PMC9913351

# EXPERIMENT DESCRIPTION: HPLC on immobilized artificial membrane column (HPLC-IAM)
# Format: physicochemical
# SETUP CONDITIONS: retention factor, phosphate buffer pH 7.4/acetonitrile 80:20
Kindly supply the reported kIAM values for the records listed here.
Reply with the value as a number alone.

For reference, reported kIAM for CCC1(c2ccccc2)C(=O)NCNC1=O [primidone] stands at 2.02

For reference, reported kIAM for CC(=O)CC(c1ccccc1)c1c(O)c2ccccc2oc1=O (stereo not shown) [warfarin] stands at 2.76

For reference, reported kIAM for CN(C)CCCC1(c2ccc(F)cc2)OCc2cc(C#N)ccc21 (stereo not shown) [citalopram] stands at 3.14

For reference, reported kIAM for C=C[C@H]1C[N@@]2CC[C@H]1C[C@H]2[C@H](O)c1ccnc2ccc(OC)cc12 [quinine] stands at 3.06

For reference, reported kIAM for CCS(=O)(=O)CCn1c([N+](=O)[O-])cnc1C [tinidazole] stands at 2.00

For reference, reported kIAM for CC1COc2c(N3CCN(C)CC3)c(F)cc3c(=O)c(C(=O)O)cn1c23 (stereo not shown) [ofloxacin] stands at 3.07

For reference, reported kIAM for CC[C@@H](CO)NCCN[C@@H](CC)CO [ethambutol] stands at 2.18

For reference, reported kIAM for CC[C@@H](C(N)=O)N1CCCC1=O [levetiracetam] stands at 1.62

For reference, reported kIAM for CN(C)CCCN1c2ccccc2CCc2ccc(Cl)cc21 [clomipramine] stands at 3.05

For reference, reported kIAM for Nc1ccc(O)c(C(=O)O)c1 [mesalazine] stands at 1.28

====

# TARGET ENTITY: human serum albumin HSA (Homo sapiens, UniProt P02768)
# Construct: 4 × 10 mm
# Sequence (P02768 25-609): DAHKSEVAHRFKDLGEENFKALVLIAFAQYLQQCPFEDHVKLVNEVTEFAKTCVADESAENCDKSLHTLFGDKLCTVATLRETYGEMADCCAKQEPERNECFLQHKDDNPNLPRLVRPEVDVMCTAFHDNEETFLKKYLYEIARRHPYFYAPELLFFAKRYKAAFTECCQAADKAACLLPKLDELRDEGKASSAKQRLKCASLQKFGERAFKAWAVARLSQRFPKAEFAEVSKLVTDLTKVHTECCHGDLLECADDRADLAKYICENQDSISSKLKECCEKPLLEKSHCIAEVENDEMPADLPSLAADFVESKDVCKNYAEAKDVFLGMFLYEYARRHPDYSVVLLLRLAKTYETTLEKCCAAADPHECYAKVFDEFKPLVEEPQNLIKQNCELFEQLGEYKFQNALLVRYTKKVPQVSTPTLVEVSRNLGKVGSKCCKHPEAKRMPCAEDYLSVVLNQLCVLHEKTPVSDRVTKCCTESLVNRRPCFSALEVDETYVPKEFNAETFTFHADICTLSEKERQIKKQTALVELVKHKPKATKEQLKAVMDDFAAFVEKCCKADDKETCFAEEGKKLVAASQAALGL
# EXPERIMENT DESCRIPTION: HPLC on immobilized human serum albumin column (HPLC-HSA)
# Format: in vitro ADME
# SETUP CONDITIONS: retention factor, acetate buffer pH 7.4/acetonitrile/methanol 85:10:5
Param threshold (2) applies to kHSA; output True when value >= threshold, False when value < threshold.

API: above_or_equal(metric=kHSA, cutoff=2) for item `CN1CCC[C@@H]1Cc1c[nH]c2ccc(CCS(=O)(=O)c3ccccc3)cc12`
True

API: above_or_equal(metric=kHSA, cutoff=2) for item `CNCC[C@H](Oc1cccc2ccccc12)c1cccs1`
True

API: above_or_equal(metric=kHSA, cutoff=2) for item `Nc1ccc(O)c(C(=O)O)c1`
False

API: above_or_equal(metric=kHSA, cutoff=2) for item NC(=O)N1c2ccccc2CC(=O)c2ccccc21 [oxcarbamazepine]
False

API: above_or_equal(metric=kHSA, cutoff=2) for item O=C(c1ccccc1)c1ccc2n1CCC2C(=O)O (stereo not shown)
True

API: above_or_equal(metric=kHSA, cutoff=2) for item CCC(C)n1ncn(-c2ccc(N3CCN(c4ccc(OCC5COC(Cn6cncn6)(c6ccc(Cl)cc6Cl)O5)cc4)CC3)cc2)c1=O (stereo not shown)
True

API: above_or_equal(metric=kHSA, cutoff=2) for item `CC(=O)Nc1nnc(S(N)(=O)=O)s1`
False

API: above_or_equal(metric=kHSA, cutoff=2) for item CCOC(=O)C1=C(C)NC(C)=C(C(=O)OC)C1c1cccc([N+](=O)[O-])c1 (stereo not shown)
True

API: above_or_equal(metric=kHSA, cutoff=2) for item `CC[C@@H](CO)NCCN[C@@H](CC)CO`
False

API: above_or_equal(metric=kHSA, cutoff=2) for item `CCC1(c2ccccc2)C(=O)NCNC1=O`
False
